experiment: Half life in rat at 1 mg/kg, iv; type: ADME, organism-based; design: dose 1 mg/kg, route intravenous; conditions: in vivo
readout.name: half-life (h)
Kindly answer with a numeric value in h, unit omitted.

[ask] Read off the recorded half-life for C[C@@H]1CCCN1CCCOc1ccc(-c2ccc(=O)n(C)c2)cc1
[reply] 1.4

###

target: Histamine H3 receptor (Rattus norvegicus, UniProt Q9QYN8); test: Displacement of [3H]NAMH from rat histamine H3 receptor expressed in CHO cells; format: cell-based
Sequence (Q9QYN8 whole entry): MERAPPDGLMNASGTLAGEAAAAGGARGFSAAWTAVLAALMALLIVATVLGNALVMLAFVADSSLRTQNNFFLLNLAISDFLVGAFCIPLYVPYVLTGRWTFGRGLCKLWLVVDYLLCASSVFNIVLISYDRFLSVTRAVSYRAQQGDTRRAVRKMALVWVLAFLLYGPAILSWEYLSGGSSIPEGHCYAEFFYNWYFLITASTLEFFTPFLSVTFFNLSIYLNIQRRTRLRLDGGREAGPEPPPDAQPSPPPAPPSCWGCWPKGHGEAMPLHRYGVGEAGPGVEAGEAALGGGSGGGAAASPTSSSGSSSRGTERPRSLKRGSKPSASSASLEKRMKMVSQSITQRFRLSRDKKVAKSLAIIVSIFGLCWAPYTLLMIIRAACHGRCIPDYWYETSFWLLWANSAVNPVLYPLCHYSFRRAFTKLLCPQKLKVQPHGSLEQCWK
Ki reference
Please make sure the unit comes right after the number.

[ask] Read off the recorded Ki for C[C@@H]1CCCN1CCCOc1ccc(-c2cc(-c3ccccc3)c(=O)n(C)c2)cc1
[reply] 7.9 nM

[ask] Read off the recorded Ki for C[C@@H]1CCCN1CCCOc1ccc(-c2cc(C#N)c(=O)n(C)c2)cc1
[reply] 3 nM

###

test: Drug level in rat brain at 10 mg/kg, ip after 1 hr; assay type: ADME, organism-based; parameters: dose 10 mg/kg, route intraperitoneal; details: read-out: Drug uptake
readout.name: concentration at 1 h (nM)
Kindly answer with a numeric value in nM, unit omitted.

[ask] Read off the recorded concentration at 1 h for C[C@@H]1CCCN1CCCOc1ccc(-c2ccc(=O)n(C)c2)cc1
[reply] 2900

###

test: Half life in mouse liver microsomes; type: ADME, Microsome
readout.name: half-life

[ask] Read off the recorded half-life for C[C@@H]1CCCN1CCCOc1ccc(-c2ccc(=O)n(C)c2)cc1
[reply] > 40 min

###

molecular target: Histamine H3 receptor (Homo sapiens); experiment: Inhibition of basal activity of human histamine H3 receptor expressed in CHO cells assessed as inhibition of RAHM-induced [35S]GTPgammaS binding after 4 hrs by beta liquid scintillation counting
Sequence (Q9Y5N1 whole entry): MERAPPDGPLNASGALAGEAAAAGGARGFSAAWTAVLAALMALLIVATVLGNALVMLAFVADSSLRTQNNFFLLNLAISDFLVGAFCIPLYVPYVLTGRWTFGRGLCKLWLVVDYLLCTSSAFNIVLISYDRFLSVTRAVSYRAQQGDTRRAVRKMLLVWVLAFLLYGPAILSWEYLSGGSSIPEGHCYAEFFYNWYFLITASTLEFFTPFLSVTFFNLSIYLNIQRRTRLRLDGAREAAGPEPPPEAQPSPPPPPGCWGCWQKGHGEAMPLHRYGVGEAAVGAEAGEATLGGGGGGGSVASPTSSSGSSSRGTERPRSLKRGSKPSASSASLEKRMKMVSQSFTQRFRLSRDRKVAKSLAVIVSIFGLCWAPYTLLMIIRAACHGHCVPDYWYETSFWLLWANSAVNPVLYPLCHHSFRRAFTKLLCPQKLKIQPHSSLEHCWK
readout.name: pEC50
Would you please state pEC50, meaning minus log10 of the concentration in mol/L, as a bare number?

[ask] Read off the recorded pEC50 for C[C@@H]1CCCN1CCCOc1ccc(-c2ccc(=O)n(C)c2)cc1
[reply] 9.15

###

log10(Ki) reference
biological target: Histamine H3 receptor (Homo sapiens); assay: Displacement of [3H]NAMH from human histamine H3 receptor expressed in CHO cells; format: cell-based
The figures below represent log10 of Ki, where Ki is stated in nM.

See these solved cases before continuing.
>>> endpoint_value("C[C@@H]1CCCN1CCCOc1ccc(-c2ccc(=O)n(-c3ccccc3)c2)cc1")
0.26
>>> endpoint_value("C[C@@H]1CCCN1CCCOc1ccc(-c2ccc(=O)n(C)c2)cc1")
-0.15
>>> endpoint_value("C[C@@H]1CCCN1CCCOc1ccc(-c2ccc(=O)n(Cc3ccccc3)c2)cc1")
0.30

[ask] Determine reported log10(Ki) for C[C@@H]1CCCN1CCCOc1ccc(-c2cccn(C)c2=O)cc1 ; test system: Histamine H3 receptor (Homo sapiens).
[reply] 1.26

[ask] Determine reported log10(Ki) for C[C@@H]1CCCN1CCCOc1ccc(-c2ccn(C)c(=O)c2)cc1 ; test system: Histamine H3 receptor (Homo sapiens).
[reply] 0.51

[ask] Determine reported log10(Ki) for C[C@@H]1CCCN1CCCOc1ccc(-c2cccc(=O)n2C)cc1 ; test system: Histamine H3 receptor (Homo sapiens).
[reply] 0.69

###

clearance reference
assay: Clearance in rat at 1 mg/kg, iv; assay type: ADME, organism-based; set-up: dose 1 mg/kg, route intravenous; conditions: in vivo
Kindly answer with a numeric value in mL/min/kg, unit omitted.

See these solved cases before continuing.
>>> endpoint_value("C[C@@H]1CCCN1CCCOc1ccc(-c2cn(C)c(=O)c3ccccc23)cc1")
42
>>> endpoint_value("C[C@@H]1CCCN1CCCOc1ccc(-c2ccc(=O)[nH]c2)cc1")
96
>>> endpoint_value("C[C@@H]1CCCN1CCCOc1ccc(-c2ccc(=O)n(C)c2)cc1")
11

[ask] Read off the recorded clearance for C[C@@H]1CCCN1CCCOc1ccc(-c2ccc(=O)n(Cc3ccccc3)c2)cc1
[reply] 171

[ask] Read off the recorded clearance for C[C@@H]1CCCN1CCCOc1ccc(-c2ccc(=O)n(-c3ccccc3)c2)cc1
[reply] 138

###

molecular target: Cytochrome P450 2C19 (Homo sapiens, UniProt P33261)
Sequence (P33261 whole entry): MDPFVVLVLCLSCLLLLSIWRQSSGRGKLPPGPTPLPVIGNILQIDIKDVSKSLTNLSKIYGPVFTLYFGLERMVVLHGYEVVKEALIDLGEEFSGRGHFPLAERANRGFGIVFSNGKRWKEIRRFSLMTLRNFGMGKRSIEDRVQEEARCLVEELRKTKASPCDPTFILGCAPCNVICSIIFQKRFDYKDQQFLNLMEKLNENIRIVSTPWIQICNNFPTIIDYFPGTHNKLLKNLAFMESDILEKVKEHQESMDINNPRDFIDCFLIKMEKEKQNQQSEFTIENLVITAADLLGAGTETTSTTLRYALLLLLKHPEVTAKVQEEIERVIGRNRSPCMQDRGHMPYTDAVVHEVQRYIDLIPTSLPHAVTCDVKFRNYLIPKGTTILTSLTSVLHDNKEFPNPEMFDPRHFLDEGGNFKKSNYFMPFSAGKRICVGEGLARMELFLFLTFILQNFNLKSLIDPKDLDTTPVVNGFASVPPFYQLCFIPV
pIC50: −log10 of the molar value.
readout.name: pIC50

[ask] Read off the recorded pIC50 for C[C@@H]1CCCN1CCCOc1ccc(-c2ccc(=O)n(C)c2)cc1
[reply] < 4.52

###

assay: AUC (0 to t) in rat at 5 mg/kg, po; assay type: ADME, organism-based; design: dose 5 mg/kg, route oral; conditions: plasma
readout.name: AUC(0-t) (µg·h/mL)
Kindly answer with a numeric value in µg·h/mL, unit omitted.

[ask] Read off the recorded AUC(0-t) for C[C@@H]1CCCN1CCCOc1ccc(-c2ccc(=O)n(C)c2)cc1
[reply] 0.867

###

pKi reference
biological target: Histamine H3 receptor (Rattus norvegicus)
Would you please state pKi, meaning minus log10 of the concentration in mol/L, as a bare number?

See these solved cases before continuing.
>>> endpoint_value("C[C@@H]1CCCN1CCCOc1ccc(-c2ccc(=O)n(-c3ccc(F)cc3)c2)cc1")
8.02
>>> endpoint_value("C[C@@H]1CCCN1CCCOc1ccc(-c2ccc(=O)[nH]c2)cc1")
8.05
>>> endpoint_value("C[C@@H]1CCCN1CCCOc1ccc(-c2ccc(=O)n(C)c2)cc1")
8.07

With those in mind, consider the next compound.
[ask] Read off the recorded pKi for C[C@@H]1CCCN1CCCOc1ccc(-c2cccc(=O)n2C)cc1
[reply] 7.68
